Quick list: Weight loss of volatile compound through respective coating of paper 1 per entry.
protocol: Evaporation cell test: weight loss of volatile compound through coated or uncoated paper
Type: physicochemical
experimentalContext: paper 1, Polymer dispersion 1, thickness 10 g/m^2, coverage 50%; 23° C., 50% humidity
measuredProperty: Weight loss of volatile compound through respective coating of paper 1

{"columns": ["compound", "reportedResult"],
 "data": [
  ["CCCCCC [n-Hexane]", "4 g/(m^2d)"],
  ["CC(=O)OCC(C)C [Isobutyl acetate]", "300 g/(m^2d)"],
  ["CCOC(C)=O [Ethyl acetate]", "1320 g/(m^2d)"],
  ["CCCCCCC [n-Heptane]", "2 g/(m^2d)"],
  ["CC(C)=CCCC(C)CC=O (centres unmarked) [Citronellal]", "2 g/(m^2d)"],
  ["CCCCCC=O [Hexanal]", "291 g/(m^2d)"],
  ["C=C(C)[C@H]1CC=C(C)CC1 [Limonene]", "2 g/(m^2d)"],
  ["CC(=O)OCCC(C)C [Isoamyl acetate]", "120 g/(m^2d)"]
]}

====

protocol: Evaporation cell test: weight loss of volatile compound through coated or uncoated paper
Type: physicochemical
experimentalContext: paper 2, Polymer dispersion 2, thickness 5 g/m^2, coverage 70%; 23° C., 50% humidity
Experimental: The test was carried out according to the method described by Diehl, H. Pfeiffer, A.-M, Seyffer H., (2014), New testing method for functional barriers, International Paperworld IPW 8-11. All tests were carried out in a climate chamber at 23° C. and 50% humidity. For this, circular specimens were cut from the paper coated with the respective coating. The specimen was placed in the holder of the evaporation cell. […]
Quick list: Weight loss of volatile compound through respective coating of paper 2 per entry.
measuredProperty: Weight loss of volatile compound through respective coating of paper 2

{"columns": ["molecule", "reportedResult"],
 "data": [
  ["CC(=O)OCC(C)C [Isobutyl acetate]", "163 g/(m^2d)"],
  ["CCCCCC", "953 g/(m^2d)"],
  ["CCOC(C)=O [Ethyl acetate]", "653 g/(m^2d)"],
  ["CCCCCC=O", "353 g/(m^2d)"],
  ["CC(=O)OCCC(C)C [Isoamyl acetate]", "103 g/(m^2d)"],
  ["C=C(C)[C@H]1CC=C(C)CC1", "53 g/(m^2d)"],
  ["CCCCCCC", "603 g/(m^2d)"],
  ["CC(C)=CCCC(C)CC=O (centres unmarked)", "4 g/(m^2d)"]
]}

====

protocol: Evaporation cell test: weight loss of volatile compound through coated or uncoated paper
Format: physicochemical
experimentalContext: uncoated paper V2, no coating; 23° C., 50% humidity
measuredProperty: Weight loss of volatile compound through uncoated paper V2

{"columns": ["compound", "reportedResult"],
 "data": [
  ["C=C(C)[C@H]1CC=C(C)CC1 [Limonene]", "1750 g/(m^2d)"],
  ["CC(=O)OCCC(C)C [Isoamyl acetate]", "2100 g/(m^2d)"],
  ["CCOC(C)=O [Ethyl acetate]", "2450 g/(m^2d)"],
  ["CCCCCC [n-Hexane]", "> 4000 g/(m^2d)"],
  ["CC(C)=CCCC(C)CC=O (centres unmarked) [Citronellal]", "950 g/(m^2d)"],
  ["CCCCCCC [n-Heptane]", "4500 g/(m^2d)"],
  ["CCCCCC=O [Hexanal]", "3750 g/(m^2d)"],
  ["CC(=O)OCC(C)C [Isobutyl acetate]", "3500 g/(m^2d)"]
]}

====

Quick list: Weight loss of volatile compound through respective coating of paper 1 per entry.
protocol: Evaporation cell test: weight loss of volatile compound through coated or uncoated paper
Assay type: physicochemical
experimentalContext: paper 1, Polymer dispersion 2, thickness 10 g/m^2, coverage 50%; 23° C., 50% humidity
measuredProperty: Weight loss of volatile compound through respective coating of paper 1

{"columns": ["compound", "reportedResult"],
 "data": [
  ["CC(=O)OCCC(C)C [Isoamyl acetate]", "204 g/(m^2d)"],
  ["CC(=O)OCC(C)C [Isobutyl acetate]", "320 g/(m^2d)"],
  ["CCCCCCC [n-Heptane]", "1200 g/(m^2d)"],
  ["CCCCCC=O [Hexanal]", "702 g/(m^2d)"],
  ["C=C(C)[C@H]1CC=C(C)CC1 [Limonene]", "100 g/(m^2d)"],
  ["CCOC(C)=O [Ethyl acetate]", "1300 g/(m^2d)"],
  ["CC(C)=CCCC(C)CC=O (centres unmarked) [Citronellal]", "2 g/(m^2d)"],
  ["CCCCCC [n-Hexane]", "1900 g/(m^2d)"]
]}

====

protocol: Evaporation cell test: weight loss of volatile compound through coated or uncoated paper
Type: physicochemical
experimentalContext: paper V1, Polymer dispersion 1, thickness 10 g/m^2, coverage 100%; 23° C., 50% humidity
Quick list: Weight loss of volatile compound through respective coating of paper V1 per entry.
measuredProperty: Weight loss of volatile compound through respective coating of paper V1

{"columns": ["compound", "reportedResult"],
 "data": [
  ["C=C(C)[C@H]1CC=C(C)CC1", "1 g/(m^2d)"],
  ["CC(=O)OCC(C)C [Isobutyl acetate]", "150 g/(m^2d)"],
  ["CCOC(C)=O [Ethyl acetate]", "660 g/(m^2d)"],
  ["CC(=O)OCCC(C)C [Isoamyl acetate]", "60 g/(m^2d)"],
  ["CCCCCCC", "1 g/(m^2d)"],
  ["CCCCCC=O", "145 g/(m^2d)"],
  ["CC(C)=CCCC(C)CC=O (centres unmarked)", "1 g/(m^2d)"],
  ["CCCCCC", "2 g/(m^2d)"]
]}

====

Quick list: Weight loss of volatile compound through respective coating of paper 2 per entry.
protocol: Evaporation cell test: weight loss of volatile compound through coated or uncoated paper
Type: physicochemical
experimentalContext: paper 2, Polymer dispersion 1, thickness 15 g/m^2, coverage 30%; 23° C., 50% humidity
measuredProperty: Weight loss of volatile compound through respective coating of paper 2

{"columns": ["compound", "reportedResult"],
 "data": [
  ["CCCCCC [n-Hexane]", "10 g/(m^2d)"],
  ["C=C(C)[C@H]1CC=C(C)CC1 [Limonene]", "5 g/(m^2d)"],
  ["CCCCCC=O [Hexanal]", "725 g/(m^2d)"],
  ["CCOC(C)=O [Ethyl acetate]", "3300 g/(m^2d)"],
  ["CC(C)=CCCC(C)CC=O (centres unmarked) [Citronellal]", "5 g/(m^2d)"],
  ["CC(=O)OCCC(C)C [Isoamyl acetate]", "295 g/(m^2d)"],
  ["CC(=O)OCC(C)C [Isobutyl acetate]", "749 g/(m^2d)"],
  ["CCCCCCC [n-Heptane]", "5 g/(m^2d)"]
]}

====

Quick list: Weight loss of volatile compound through respective coating of paper V1 per entry.
protocol: Evaporation cell test: weight loss of volatile compound through coated or uncoated paper
Type: physicochemical
experimentalContext: paper V1, Polymer dispersion 2, thickness 10 g/m^2, coverage 100%; 23° C., 50% humidity
measuredProperty: Weight loss of volatile compound through respective coating of paper V1

{"columns": ["molecule", "reportedResult"],
 "data": [
  ["CCCCCCC [n-Heptane]", "600 g/(m^2d)"],
  ["CC(C)=CCCC(C)CC=O (centres unmarked) [Citronellal]", "1 g/(m^2d)"],
  ["CCCCCC=O [Hexanal]", "350 g/(m^2d)"],
  ["CC(=O)OCC(C)C [Isobutyl acetate]", "160 g/(m^2d)"],
  ["C=C(C)[C@H]1CC=C(C)CC1 [Limonene]", "50 g/(m^2d)"],
  ["CC(=O)OCCC(C)C [Isoamyl acetate]", "100 g/(m^2d)"],
  ["CCOC(C)=O [Ethyl acetate]", "650 g/(m^2d)"],
  ["CCCCCC [n-Hexane]", "950 g/(m^2d)"]
]}
